Sourced from patent US11603377B2

Reported Kd values are given for each entry in this list.
- test system: FKBP51 / FRB ternary complex (Homo sapiens (Human), UniProt P42345+Q13451)
- assay protocol: SPR assay to characterize ternary complex formation with FKBP51 (FRB binding to rapalog-saturated FKBP51)
- measurement setup: FRB dilutions with 100 nM rapalog on immobilized FKBP51

compound | Kd
CO[C@@H]1C[C@H](C[C@@H](C)[C@@H]2CC(=O)[C@H](C)/C=C(\C)[C@@H](O)[C@@H](OC)C(=O)[C@H](C)C[C@H](C)/C=C/C=C/C=C(\C)[C@H](NS(=O)(=O)CC3CCCCC3)C[C@@H]3CC[C@@H](C)[C@@](O)(O3)C(=O)C(=O)N3CCCC[C@H]3C(=O)O2)CC[C@H]1O | > 800 nM
COC1CC(CC(C)C2CC(=O)C(C)C=C(C)C(O)C(OC)C(=O)C(C)CC(C)C=CC=CC=C(C)C(NS(=O)(=O)C3CC3)CC3CCC(C)C(O)(O3)C(=O)C(=O)N3CCCCC3C(=O)O2)CCC1O (mixture of isomers) | < 300 nM
COC1CC(CC(C)C2CC(=O)C(C)C=C(C)C(O)C(OC)C(=O)C(C)CC(C)C=CC=CC=C(C)C(OCC3CCC3)CC3CCC(C)C(O)(O3)C(=O)C(=O)N3CCCCC3C(=O)O2)CCC1O (stereo not shown) [Compound 36] | > 800 nM
CCOC(=O)COC1CCC(CC(C)C2CC(=O)C(C)C=C(C)C(O)C(OC)C(=O)C(C)CC(C)C=CC=CC=C(C)C(OCCOC)CC3CCC(C)C(O)(O3)C(=O)C(=O)N3CCCCC3C(=O)O2)CC1OC (stereo not shown) | > 800 nM

----------
- test system: mTORC1 (Homo sapiens (Human), UniProt P42345+P62942)
- assay protocol: mTORC1 inhibition, AlphaLISA of Phospho-p70 S6 kinase (p70S6K pT389) in PC-3 cells
- measurement setup: inhibition of p70S6K pT389 levels

molecule | test system | IC50
CO[C@@H]1C[C@H](C[C@@H](C)[C@@H]2CC(=O)[C@H](C)/C=C(\C)[C@@H](O)[C@@H](OC)C(=O)[C@H](C)C[C@H](C)/C=C/C=C/C=C(\C)[C@@H](OCCC3CCOC3)C[C@@H]3CC[C@@H](C)[C@@](O)(O3)C(=O)C(=O)N3CCCC[C@H]3C(=O)O2)CC[C@H]1O (stereo partly shown) [Compound 32] | mTORC1 (Homo sapiens (Human), UniProt P42345+P62942) | 0.1 to 0.8 nM
CCOC(=O)COC1CCC(CC(C)C2CC(=O)C(C)C=C(C)C(O)C(OC)C(=O)C(C)CC(C)C=CC=CC=C(C)C(OC3CC3)CC3CCC(C)C(O)(O3)C(=O)C(=O)N3CCCCC3C(=O)O2)CC1OC (stereo not shown) [Compound 48] | mTORC1 (Homo sapiens (Human), UniProt P42345+P62942) | > 0.8 nM
COC1CC(CC(C)C2CC(=O)C(C)C=C(C)C(O)C(OC)C(=O)C(C)CC(C)C=CC=CC=C(C)C(OCC3CCC3)CC3CCC(C)C(O)(O3)C(=O)C(=O)N3CCCCC3C(=O)O2)CCC1OCCCO (stereo not shown) [Compound 44] | mTORC1 (Homo sapiens (Human), UniProt P42345+P62942) | 0.1 to 0.8 nM
CO[C@@H]1C[C@H](C[C@@H](C)[C@@H]2CC(=O)[C@H](C)/C=C(\C)[C@@H](O)[C@@H](OC)C(=O)[C@H](C)C[C@H](C)/C=C/C=C/C=C(\C)[C@@H](OCC3CCOC3)C[C@@H]3CC[C@@H](C)[C@@](O)(O3)C(=O)C(=O)N3CCCC[C@H]3C(=O)O2)CC[C@H]1O (stereo partly shown) [Compound 31] | mTORC1 (Homo sapiens (Human), UniProt P42345+P62942) | 0.1 to 0.8 nM
CCOC(=O)CS(=O)(=O)NC1C[C@H]2CC[C@H](C)[C@](O)(O2)C(=O)C(=O)N(C)C(C)C(=O)OC([C@H](C)C[C@@H]2CC[C@@H](OC3CC3)[C@H](OC)C2)CC(=O)C(C)/C=C(\C)C(O)C(OC)C(=O)C(C)CC/C=C/C=C/C=C/1C (stereo partly shown) [Compound 12] | mTORC1 (Homo sapiens (Human), UniProt P42345+P62942) | > 0.8 nM
CO[C@@H]1C[C@H](C[C@@H](C)[C@@H]2CC(=O)[C@H](C)/C=C(\C)[C@@H](O)[C@@H](OC)C(=O)[C@H](C)C[C@H](C)/C=C/C=C/C=C(\C)[C@@H](OCCC3COC3)C[C@@H]3CC[C@@H](C)[C@@](O)(O3)C(=O)C(=O)N3CCCC[C@H]3C(=O)O2)CC[C@H]1O [Compound 34] | mTORC1 (Homo sapiens (Human), UniProt P42345+P62942) | > 0.8 nM
COCCOCCS(=O)(=O)N[C@H]1C[C@@H]2CC[C@@H](C)[C@@](O)(O2)C(=O)C(=O)N2CCCC[C@H]2C(=O)O[C@H]([C@H](C)C[C@@H]2CC[C@@H](O)[C@H](OC)C2)CC(=O)[C@H](C)/C=C(\C)[C@@H](O)[C@@H](OC)C(=O)[C@H](C)C[C@H](C)/C=C/C=C/C=C/1C [Compound 9] | mTORC1 (Homo sapiens (Human), UniProt P42345+P62942) | < 0.1 nM
